- targetOfAssay: Melanocyte-stimulating hormone receptor (Homo sapiens, UniProt Q01726)
- Sequence (Q01726 whole entry): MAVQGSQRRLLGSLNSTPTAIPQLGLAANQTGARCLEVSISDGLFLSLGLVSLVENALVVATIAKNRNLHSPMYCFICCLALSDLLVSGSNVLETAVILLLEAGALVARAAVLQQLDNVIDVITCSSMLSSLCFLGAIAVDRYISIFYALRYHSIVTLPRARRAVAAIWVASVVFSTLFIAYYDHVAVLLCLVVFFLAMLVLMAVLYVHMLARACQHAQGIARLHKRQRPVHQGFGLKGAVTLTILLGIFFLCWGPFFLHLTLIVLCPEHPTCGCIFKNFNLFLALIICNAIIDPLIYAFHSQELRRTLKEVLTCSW
- protocol: Agonist activity at human MC1R expressed in HEK293 cells assessed as induction of intracellular cAMP accumulation measured after 3 mins
Bridge positions count the residues as written; N and C are the ends. Square brackets hold non-standard residues; d marks the D form. Peptide text beside a SMILES is read from it. Ac4c = NC1(C(=O)O)CCC1; Aib = CC(C)(N)C(=O)O
List of EC50 values.
Note: a bare number is incomplete; add the unit.

Examples from the recorded data:
# compound, EC50
data = [
    ("CC1(C)NC(=O)C[C@@H](C(N)=O)NC(=O)[C@H](Cc2c[nH]c3ccccc23)NC(=O)[C@H](CCCNC(=N)N)NC(=O)[C@@H](Cc2ccccc2)NC(=O)[C@H](Cc2c[nH]cn2)NC1=O ([Aib]H[dF]RWD-NH2; lactam N-6)", "87 nM"),
    ("N=C(N)NCCC[C@@H]1NC(=O)[C@@H](Cc2ccc3ccccc3c2)NC(=O)[C@H](Cc2c[nH]cn2)NC(=O)C2(CCCC2)NC(=O)C[C@@H](C(N)=O)NC(=O)[C@H](Cc2c[nH]c3ccccc23)NC1=O", "14 nM"),
    ("N=C(N)NCCC[C@@H]1NC(=O)[C@@H](Cc2ccccc2)NC(=O)[C@H](Cc2c[nH]cn2)NC(=O)C2(CCC2)NC(=O)CC[C@@H](C(N)=O)NC(=O)[C@H](Cc2c[nH]c3ccccc23)NC1=O ([Ac4c]H[dF]RWE-NH2; lactam N-6)", "25 nM"),
]

Problem: Name the reported EC50 value associated with the compound N=C(N)NCCC[C@@H]1NC(=O)[C@@H](Cc2ccc3ccccc3c2)NC(=O)[C@H](Cc2c[nH]cn2)NC(=O)C2(CCCCC2)NC(=O)C[C@@H](C(N)=O)NC(=O)[C@H](Cc2c[nH]c3ccccc23)NC1=O
Result: 16 nM
